- EXPERIMENT_NOTES: Plasma concentration versus time of Compound I and metabolite Compound III in patients dosed QD or BID with Form B of Compound II plus fulvestrant
- Assay type: in vivo, human
- PROTOCOL_CONDITIONS: human, plasma, oral, 200 mg, Cohort 8, 200 mg BID of Form B, Day 29, 8.0 h; read-out: Compound I Concentration, Max
READOUT_NAME: concentration at 8 h (ng/mL)
Please reply with the bare figure in ng/mL and do not write the unit itself.

In: # get_value(readout='concentration at 8 h', item= CC(C)N1CCN(c2ccc(Nc3ncc4cc5n(c4n3)C3(CCCCC3)CNC5=O)nc2)CC1 )
Out: 21.7

====

- EXPERIMENT_NOTES: Plasma concentration versus time of Compound I and metabolite Compound III in patients dosed QD or BID with Form B of Compound II plus fulvestrant
- Format: in vivo, human
- PROTOCOL_CONDITIONS: human, plasma, oral, 650 mg, 650 mg QD of Form B, Day 1, 0.0 h, Median; read-out: Compound I Concentration
READOUT_NAME: concentration at 0 h

In: # get_value(readout='concentration at 0 h', item= CC(C)N1CCN(c2ccc(Nc3ncc4cc5n(c4n3)C3(CCCCC3)CNC5=O)nc2)CC1 [Compound I] )
Out: 0 ng/mL

====

- EXPERIMENT_NOTES: Plasma concentration versus time of Compound I and metabolite Compound III in patients dosed QD or BID with Form B of Compound II plus fulvestrant
- Assay type: in vivo, human
- PROTOCOL_CONDITIONS: human, plasma, oral, 650 mg, 650 mg QD of Form B, Day 1, 10.0 h, Median; read-out: Compound III Concentration
READOUT_NAME: concentration at 10 h (ng/mL)
Please reply with the bare figure in ng/mL and do not write the unit itself.

In: # get_value(readout='concentration at 10 h', item= O=C1NCC2(CCCCC2)n2c1cc1cnc(Nc3ccc(N4CCNCC4)cn3)nc12 )
Out: 5.32

====

- EXPERIMENT_NOTES: Plasma concentration versus time of Compound I and metabolite Compound III in patients dosed QD or BID with Form B of Compound II plus fulvestrant
- Type: in vivo, human
- PROTOCOL_CONDITIONS: human, plasma, oral, 200 mg, Cohort 8, 200 mg BID of Form B, Day 29, 1.0 h; read-out: Compound I Concentration, Min
READOUT_NAME: concentration at 1 h

In: # get_value(readout='concentration at 1 h', item= CC(C)N1CCN(c2ccc(Nc3ncc4cc5n(c4n3)C3(CCCCC3)CNC5=O)nc2)CC1 [Compound I] )
Out: 5.1 ng/mL

====

- EXPERIMENT_NOTES: Steady-state AUC0-24,ss, (AUC0-24,ss)/dose, half-life and time to steady state: Compound I versus palbociclib, ribociclib, abemaciclib
- Type: in vivo, human
- PROTOCOL_CONDITIONS: 400 mg QD of Form B of Compound II, Day 29
READOUT_NAME: (Mean AUC0-24,ss)/Dose (mg) (ng·h/mL/mg)
Please reply with the bare figure in ng·h/mL/mg and do not write the unit itself.

In: # get_value(readout='(Mean AUC0-24,ss)/Dose (mg)', item= CC(C)N1CCN(c2ccc(Nc3ncc4cc5n(c4n3)C3(CCCCC3)CNC5=O)nc2)CC1 )
Out: 0.695

====

- EXPERIMENT_NOTES: Plasma concentration versus time of Compound I and metabolite Compound III in patients dosed QD or BID with Form B of Compound II plus fulvestrant
- Assay type: in vivo, human
- PROTOCOL_CONDITIONS: human, plasma, oral, 650 mg, 650 mg QD of Form B, Day 1, […], Mean; read-out: Compound III Concentration
READOUT_NAME: concentration at 24 h (ng/mL)
Please reply with the bare figure in ng/mL and do not write the unit itself.

In: # get_value(readout='concentration at 24 h', item= O=C1NCC2(CCCCC2)n2c1cc1cnc(Nc3ccc(N4CCNCC4)cn3)nc12 )
Out: 2.17

====

- EXPERIMENT_NOTES: Plasma concentration versus time of Compound I and metabolite Compound III in patients dosed QD or BID with Form B of Compound II plus fulvestrant
- Type: in vivo, human
- PROTOCOL_CONDITIONS: human, plasma, oral, 100 mg, Cohort 6, 100 mg BID of Form B, Day 29, 0.0 h; read-out: Compound I Concentration, Max
READOUT_NAME: concentration at 0 h (ng/mL)
Please reply with the bare figure in ng/mL and do not write the unit itself.

In: # get_value(readout='concentration at 0 h', item= CC(C)N1CCN(c2ccc(Nc3ncc4cc5n(c4n3)C3(CCCCC3)CNC5=O)nc2)CC1 [Compound I] )
Out: 9.2

====

- EXPERIMENT_NOTES: Plasma concentration versus time of Compound I and metabolite Compound III in patients dosed QD or BID with Form B of Compound II plus fulvestrant
- Assay type: in vivo, human
- PROTOCOL_CONDITIONS: human, plasma, oral, 100 mg, Cohort 6, 100 mg BID of Form B, Day 29, 12.0 h; read-out: Compound I Concentration, Median
READOUT_NAME: concentration at 12 h (ng/mL)
Please reply with the bare figure in ng/mL and do not write the unit itself.

In: # get_value(readout='concentration at 12 h', item= CC(C)N1CCN(c2ccc(Nc3ncc4cc5n(c4n3)C3(CCCCC3)CNC5=O)nc2)CC1 )
Out: 8.36

====

- EXPERIMENT_NOTES: Noncompartmental pharmacokinetic parameters (Cmax, Tmax, AUC, Racc) in QD and BID cohorts of Form B
- Format: in vivo, human
- PROTOCOL_CONDITIONS: human, plasma, oral, 400 mg, Compound III; 400 mg QD of Form B; Cohort 3; Day 1; read-out: Tmax (Median)
READOUT_NAME: Tmax
Form field: result (number plus unit)

In: # get_value(readout='Tmax', item= O=C1NCC2(CCCCC2)n2c1cc1cnc(Nc3ccc(N4CCNCC4)cn3)nc12 [Compound III] )
Out: 6 h

====

- EXPERIMENT_NOTES: clinical
- PROTOCOL_CONDITIONS: human, in vivo, 400 mg
READOUT_NAME: AUC(0-t) (ng·h/mL)
Please reply with the bare figure in ng·h/mL and do not write the unit itself.

In: # get_value(readout='AUC(0-t)', item= CC(C)N1CCN(c2ccc(Nc3ncc4cc5n(c4n3)C3(CCCCC3)CNC5=O)nc2)CC1 [Compound I] )
Out: 278

====

- EXPERIMENT_NOTES: Crystallization and slurry experiments, morphic forms of Compound II (XRPD, characterization)
- Assay type: physicochemical
- PROTOCOL_CONDITIONS: morphic forms (XRPD patterns) of Compound II
- Procedure: Eleven unique XRPD patterns (Form A-Form K) of Compound II were obtained from crystallization and slurry experiments using various solvents. Forms A, B, and D were evaluated as solid state forms.
READOUT_NAME: Possible Form

CC(C)N1CCN(c2ccc(Nc3ncc4cc5n(c4n3)C3(CCCCC3)CNC5=O)nc2)CC1.Cl.Cl [B] ... Hydrate
CC(C)N1CCN(c2ccc(Nc3ncc4cc5n(c4n3)C3(CCCCC3)CNC5=O)nc2)CC1.Cl.Cl [D] ... Hydrate
CC(C)N1CCN(c2ccc(Nc3ncc4cc5n(c4n3)C3(CCCCC3)CNC5=O)nc2)CC1.Cl.Cl [A] ... Hydrate
CC(C)N1CCN(c2ccc(Nc3ncc4cc5n(c4n3)C3(CCCCC3)CNC5=O)nc2)CC1.Cl.Cl [C] ... EtOAc

====

- EXPERIMENT_NOTES: Noncompartmental pharmacokinetic parameters (Cmax, Tmax, AUC, Racc) in QD and BID cohorts of Form B
- Format: in vivo, human
- PROTOCOL_CONDITIONS: human, plasma, oral, 500 mg, Compound III; 500 mg QD of Form B; Cohort 4; Day 29; read-out: AUClast (Mean)
READOUT_NAME: AUC(0-t) (ng·h/mL)
Please reply with the bare figure in ng·h/mL and do not write the unit itself.

In: # get_value(readout='AUC(0-t)', item= O=C1NCC2(CCCCC2)n2c1cc1cnc(Nc3ccc(N4CCNCC4)cn3)nc12 [Compound III] )
Out: 66.4

====

- EXPERIMENT_NOTES: Plasma concentration versus time of Compound I and metabolite Compound III in patients dosed QD or BID with Form B of Compound II plus fulvestrant
- Type: in vivo, human
- PROTOCOL_CONDITIONS: human, plasma, oral, 650 mg, 650 mg QD of Form B, Day 1, 12.0 h, Median; read-out: Compound III Concentration
READOUT_NAME: concentration at 12 h (ng/mL)
Please reply with the bare figure in ng/mL and do not write the unit itself.

In: # get_value(readout='concentration at 12 h', item= O=C1NCC2(CCCCC2)n2c1cc1cnc(Nc3ccc(N4CCNCC4)cn3)nc12 [Compound III] )
Out: 4.41
